Test: intrinsic fluorescence of library compounds, ex339/em460 – biochemical, MLSMR library, data from DPM-DC assay, artefact control, profiling panel (AID 709);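 note: signal is the first read of a kinetic run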
Applied conditions: compound autofluorescence, ex339/em460 nm, NADH buffer; at 10 µM; hits give high values; 1 = no-compound wells, NADH background
The campaign covered roughly 65,000 compounds. About 3,600 (5.5%) were called active. This excerpt belongs to a sample that is enriched for actives.
Measured quantity: fluorescence fold increase

Compound: COc1cc(OC)cc(C(=O)Nc2ccc(-c3nc4ccccc4o3)c(O)c2)c1
Obs value: 2.11

Compound: CCCCOC(=O)c1ccc(N2C(=O)CC(N3CCN(C/C=C/c4ccccc4)CC3)C2=O)cc1 (stereo unspecified)
Obs value: 1.12

Compound: COc1ccc2oc(=O)c(C(=O)N3CCN(c4ccccc4F)CC3)cc2c1
Obs value: 1.41

Compound: Cn1c2ccccc2c2c(C(=O)N3CCN(c4ccc(F)cc4)CC3)cn(C3CCCC3)c(=O)c21
Obs value: 1.57

Compound: C=CCN(CC=C)C(=O)CN1C(=O)c2ccccc2C1=O
Obs value: 1.04

Compound: Nc1nonc1-c1noc(-c2ccc(Br)o2)n1
Obs value: 1.07

Compound: Cc1nc2ccccc2cc1O
Obs value: 2.48

Compound: CCN(CC)c1ccc2cc(C(=O)O)c(=O)oc2c1
Obs value: 2.71

Compound: COc1cccc(-c2nnc(N(C)C(=O)c3ccno3)s2)c1
Obs value: 1.38

Compound: CCn1nc(C(=O)OCC(=O)N2c3ccccc3CC2C)c2ccccc2c1=O (stereo unspecified)
Obs value: 1.05

Compound: CC1(C)Cc2c(C#N)c(SCc3nc4ccccc4[nH]3)nc(N3CCOCC3)c2CO1
Obs value: 1.39

Compound: COc1cccc(-n2cc(C(=O)O)c3ccccc3c2=O)c1
Obs value: 1.36

Compound: CCOC(=O)N1CCN(C(=O)c2n[nH]c(=O)c3ccccc23)CC1
Obs value: 1.04

Compound: CC1CCCN(C(=O)c2ccc3c(c2)C(=O)N(CCC2=CCCCC2)C3=O)C1 (stereo unspecified)
Obs value: 1.04

Compound: O=C(c1cccs1)N(C(=O)c1cccs1)c1ccccn1
Obs value: 1.09

Compound: CN(C(=O)C1CCOC1)c1nnc(-c2cccnc2)s1 (stereo unspecified)
Obs value: 1.03

Compound: CC1CN(C(=O)c2ccc3c(c2)OCO3)OC(c2ccccc2)O1 (stereo unspecified)
Obs value: 1.07

Compound: CCCSC1=C(C#N)C(c2ccccc2C)C(C(=O)OC)C(=O)N1 (stereo unspecified)
Obs value: 1.13

Compound: CCC(=O)Nc1nc(OC)cc(OC)n1
Obs value: 1.16

Compound: COC(=O)C(C)C1Sc2ccccc2NC1=O (stereo unspecified)
Obs value: 1.01

Compound: CC(C)(C)n1nnc(CCc2nnn(C(C)(C)C)n2)n1
Obs value: 1.09

Compound: CCOC(=O)c1cc2ccccc2nc1C
Obs value: 1.08

Compound: Cc1ccc(-n2nc3c(c2NC(=O)CCC2CCCCC2)CS(=O)C3)cc1 (stereo unspecified)
Obs value: 1.14

Compound: O=c1[nH]nc(Cc2ccccn2)c2ccccc12
Obs value: 1.07

Compound: C=C(Br)Cn1c(CCCC)nc2ccccc21
Obs value: 1.05

Compound: COc1ccc(OC)c(-n2cc3c(=O)n(C)c(=O)n(C)c3c2)c1
Obs value: 1.3

Compound: O=C1[C@@H]2C(Cc3ccc(O)cc3)NC3(C(=O)Nc4ccc(F)cc43)[C@@H]2C(=O)N1c1ccc(F)cc1 (stereo partly specified)
Obs value: 1.1

Compound: CCCn1c(O)c(CN2CCCC(C)C2)c(C)c(C#N)c1=O (stereo unspecified)
Obs value: 1.26

Compound: COc1ccc(-c2c3c(=O)n(C)c(=O)n(C)c3cn2-c2cccc(OC)c2)cc1
Obs value: 1.94

Compound: Cc1ccc(-c2c3c(=O)n(C)c(=O)n(C)c3cn2-c2ccccc2O)cc1
Obs value: 3.24

Compound: CN(C(=O)c1ccno1)c1nnc(-c2cccnc2)s1
Obs value: 1.68

Compound: CCSc1nc(C)nc2c1oc1ccccc12
Obs value: 1.02

Compound: Cc1ccccc1N1C(=O)C2ON(c3ccccc3)C(c3ccncc3)C2C1=O (stereo unspecified)
Obs value: 1.04

Compound: Cc1ccc(S(=O)(=O)NCC(=O)N(CC(=O)NC2CCCCC2)Cc2ccco2)cc1
Obs value: 1

Compound: COc1cccc(-n2cc3c(c2-c2ccccc2)c(=O)n(C)c(=O)n3C)c1
Obs value: 2.35

Compound: CCCOC(=O)c1cc2ccccc2oc1=O
Obs value: 1.51

Compound: OCc1n[nH]c(CO)n1
Obs value: 1.04

Compound: CN(C(=O)COc1ccccc1)c1nnc(-c2ccncc2)s1
Obs value: 5

Compound: COc1ccc(/C(O)=C2/C(=O)C(=O)N(c3nc(C)c(C)s3)C2c2ccco2)cc1 (stereo unspecified)
Obs value: 1.08

Compound: CC(c1nnc(SCC(=O)Nc2sccc2C#N)n1-c1ccc(Cl)cc1)N(C)C (stereo unspecified)
Obs value: 1.06

Compound: CN(CCc1ccccn1)S(=O)(=O)c1ccc2c3c(cccc13)C(=O)N2
Obs value: 3.89

Compound: COc1ccc(CSc2nc(N3CCOCC3)c3c(c2C#N)CC(C)(C)OC3)cc1
Obs value: 1.08

Compound: CN(C)Cc1c(O)ccc2occ(C(O)c3ccccc3)c12 (stereo unspecified)
Obs value: 1.03

Compound: Cc1cc(O)ccc1-c1cnc2ccccc2n1
Obs value: 1.05

Compound: O=[n+]1c2c(n([O-])c3cc(Br)ccc31)CCC2
Obs value: 1.07

Compound: CCOC(=O)N1CCN(C(=O)c2nn(-c3ccc(C)cc3)c(=O)c3c2c2ccccc2n3C)CC1
Obs value: 2.21

Every entry's value here was drawn from PubChem BioAssay AID709.
